Overview of recorded IC50 for various compounds
# test.system: SOS1 binding to KRAS G12C (Homo sapiens, UniProt Q07889)
# Construct: consisting of amino acid residues 564 to 1049 which are the catalytic domain; MSC-11-538 (KRAS G12C)
# run.description: SOS1 GTP substitution inhibition test (HTRF/TR-FRET, KRAS G12C-SOS1 binding inhibitory ability)
# assay.conditions: HTRF, GST-KRAS G12C (2-169), SOS1-Strep (564-1049), 1.6, 8, 40, 200, 1,000 nM

Study these solved cases before continuing.
compound	test.system	measured.result
CNCc1ccccc1-c1csc(C(C)Nc2nc(C)nc3cc(C(=O)N4CCOCC4)c(OC)cc23)c1 (stereo not drawn) [Example 2]	SOS1 binding to KRAS G12C (Homo sapiens, UniProt Q07889)	50 to 100 nM
COc1cc2c(N[C@H](C)c3cc(N)cc(C(F)(F)F)c3)nc(C)nc2cc1C(=O)N1CC2COCC2C1 (stereo partly drawn) [Example 5]	SOS1 binding to KRAS G12C (Homo sapiens, UniProt Q07889)	> 100 nM
COc1cc2c(N[C@H](C)c3cc(N)cc(F)c3)nc(C)nc2cc1C(=O)N1CCOCC1 [Example 17]	SOS1 binding to KRAS G12C (Homo sapiens, UniProt Q07889)	≤ 50 nM
COc1cc2c(N[C@H](C)c3cc(N)cc(C(F)(F)F)c3)nc(C)nc2cc1OC1CCOCC1 [Example 36]	SOS1 binding to KRAS G12C (Homo sapiens, UniProt Q07889)	50 to 100 nM
CNc1cc2c(N[C@H](C)c3cc(N)cc(C(F)F)c3F)nc(C)nc2cc1C(=O)N1CCS(=O)(=O)CC1 [Example 64]	SOS1 binding to KRAS G12C (Homo sapiens, UniProt Q07889)	≤ 50 nM
COc1cc2c(NC(C)c3cc(-c4ccccc4CN(C)C)cs3)nc(C)nc2cc1C(=O)N1CCOCC1 (stereo not drawn) [Example 12]	SOS1 binding to KRAS G12C (Homo sapiens, UniProt Q07889)	50 to 100 nM

Note down IC50 recorded for CNc1cc2c(N[C@H](C)c3cc(N)cc(C(F)(F)F)c3)nc(C)nc2cc1CN1CCOCC1 [Example 49]
50 to 100 nM

Note down IC50 recorded for COc1cc2c(N[C@H](C)c3cc(N)cc(C(F)(F)F)c3F)nc(C)nc2cc1C(=O)N1CCOCC1 [Example 25]
≤ 50 nM

Note down IC50 recorded for CNc1cc2c(N[C@H](C)c3cc(N)cc(C(F)(F)F)c3)nc(C)nc2cc1C(=O)N1CCOCC1 [Example 40]
≤ 50 nM

---

Overview of recorded IC50 for various molecules
# test.system: SOS1 binding to KRAS G12C (Homo sapiens)
# Construct: consisting of amino acid residues 564 to 1049 which are the catalytic domain; MSC-11-538 (KRAS G12C)
# Sequence (Q07889 564-1049): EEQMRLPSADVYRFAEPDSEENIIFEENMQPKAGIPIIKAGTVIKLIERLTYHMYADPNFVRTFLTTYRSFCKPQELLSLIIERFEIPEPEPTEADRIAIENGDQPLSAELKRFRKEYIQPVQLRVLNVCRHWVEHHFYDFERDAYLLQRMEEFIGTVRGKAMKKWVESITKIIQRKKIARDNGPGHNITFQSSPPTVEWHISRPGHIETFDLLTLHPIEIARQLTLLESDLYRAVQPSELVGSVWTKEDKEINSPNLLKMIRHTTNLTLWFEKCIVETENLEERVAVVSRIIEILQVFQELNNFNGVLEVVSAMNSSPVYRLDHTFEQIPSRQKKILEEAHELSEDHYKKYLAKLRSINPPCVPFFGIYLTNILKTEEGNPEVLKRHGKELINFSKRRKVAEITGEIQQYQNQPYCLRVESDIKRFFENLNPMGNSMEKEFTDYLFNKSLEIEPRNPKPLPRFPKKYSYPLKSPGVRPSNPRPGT
# run.description: SOS1 GTP substitution inhibition test (HTRF/TR-FRET, KRAS G12C-SOS1 binding inhibitory ability)
# assay.conditions: HTRF, GST-KRAS G12C (2-169), SOS1-Strep (564-1049), 1.6, 8, 40, 200, 1,000 nM

Study these solved cases before continuing.
molecule	IC50
Cc1nc(N[C@H](C)c2cc(N)cc(C(F)(F)F)c2)c2cc(NC3CCCC3)c(C(=O)N3CCOCC3)cc2n1	50 to 100 nM
COCCNc1cc2c(N[C@H](C)c3cc(N)cc(C(F)F)c3F)nc(C)nc2cc1C(=O)N1CCOCC1	≤ 50 nM
COc1cc2c(N[C@H](C)c3cc(N)cc(C(F)(F)F)c3)nc(C)nc2cc1OCC1CCOCC1	> 100 nM
COc1cc2c(NC(C)c3cc(-c4ccccc4CN)cs3)nc(C)nc2cc1C(=O)N1CCOCC1 (centres unmarked)	50 to 100 nM
COc1cc2c(N[C@H](C)c3cc(N)cc(C(F)(F)F)c3)nc(C)nc2cc1C(=O)N1CCNCC1	≤ 50 nM

Note down IC50 recorded for `COc1cc2c(N[C@H](C)c3cc(N)cc(C(F)(F)F)c3)nc(C)nc2cc1C(=O)N1CCOCC1`
≤ 50 nM

Note down IC50 recorded for `COCCNc1cc2c(N[C@H](C)c3cc(N)cc(C(F)(F)F)c3)nc(C)nc2cc1C(=O)N1CCS(=O)(=O)CC1`
≤ 50 nM

Note down IC50 recorded for `COc1cc2c(N[C@H](C)c3cccc(C(F)(F)F)c3)nc(C)nc2cc1C(=O)N1CCOCC1`
> 100 nM

Sourced from patent US20240067613A1
